Each recorded value in this set is attributed to PubChem BioAssay (Tox21).

# EXPERIMENTAL TARGET: Vitamin D3 receptor (Homo sapiens) (UniProt P11473)
# Sequence (P11473 whole entry, looked up): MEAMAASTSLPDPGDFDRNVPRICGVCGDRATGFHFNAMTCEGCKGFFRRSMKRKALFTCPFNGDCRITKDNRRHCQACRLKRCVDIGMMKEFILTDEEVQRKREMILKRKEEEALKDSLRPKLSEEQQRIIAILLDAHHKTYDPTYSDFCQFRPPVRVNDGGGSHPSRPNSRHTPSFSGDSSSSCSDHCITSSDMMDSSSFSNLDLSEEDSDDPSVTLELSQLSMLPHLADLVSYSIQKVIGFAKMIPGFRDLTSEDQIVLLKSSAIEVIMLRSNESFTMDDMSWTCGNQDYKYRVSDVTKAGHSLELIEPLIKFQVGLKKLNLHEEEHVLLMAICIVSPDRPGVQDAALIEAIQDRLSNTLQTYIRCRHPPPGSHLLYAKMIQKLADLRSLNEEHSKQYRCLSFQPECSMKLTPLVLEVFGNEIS
# PROTOCOL: qHTS assay to identify small molecule antagonists of the vitamin D receptor (VDR) signaling pathway (AID 743223)
# EXPERIMENTAL SETUP: VDR-UAS-bla HEK293T, beta-lactamase FRET ratio, 16 h; series mostly up to 61 µM
Inconclusive results are not listed. Calls of active or inactive are those of the source. Calls come from the whole dose curve; as a rule, active = well fitted inhibition curve with a large enough effect in the signal ratio in the repeat runs (not every such curve was filed as active); inconclusive = weak or mixed curves, or effect the other way; inactive = no such curve, though single readings can be large or run the other way; the % refers to the signal ratio.
Please state which outcome applies, choosing from active, inactive

Would you please look over these solved cases?
In [3]: df
Out[3]:
                                   compound  class_assignment
0                                SCCCCCCCCS          inactive
1                   CCCCCCCCCCCC(=O)N(CC)CC          inactive
2          S=C(SSSSSSC(=S)N1CCCCC1)N1CCCCC1          inactive
3  C=CC(C)(CCC=C(C)C)OC(=O)/C=C/c1ccccc1 (stereo not drawn)          inactive
4              NCCCC(O)(P(=O)(O)O)P(=O)(O)O          inactive

Please state the recorded outcome for this compound: C/C=C/C=N/NC(=O)c1ccncc1
inactive

How did this test come out for CCCCOC(=O)C(C)CC (stereo not drawn) ?
inactive

Test call for this compound, please: CCN1CCN(c2cc(-c3ccc(F)cc3)c3c(n2)CCCCCC3)CC1
inactive

Query: recorded result category for CCCCCCCC/C=C\CCCCCCCC(=O)OCCOC(=O)CCCCCCC/C=C\CCCCCCCC in this test
inactive

What did this assay record as the result for CNC(=S)NN ?
active
